# assay: NCI Yeast Anticancer Drug Screen. Data for the rad50 strain (AID 155);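 note: 0% = growth of vehicle-only cultures of the same strain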
# assay.setup: S. cerevisiae rad50 strain growth inhibition; at 50.0 µM; hits give high values
About 79,000 compounds went through this panel and 15% of them were active in at least one assay; those are over-represented in the sample as a whole.
readout.name: growth inhibition (%)
Numeric only. Scale: %

The recorded growth inhibition for CC(=O)NNC(=S)N/C=C(\C#N)c1nc2ccccc2s1 is 22.2

What the record says about Oc1ccc2ccccc2c1Br : growth inhibition is 45.9

Lab note: C[C@@H]1CC[C@]2(C(=O)O)CC[C@]3(C)C(=CC[C@@H]4[C@@]5(C)CC[C@H](O)C(C)(C)[C@@H]5CC[C@]43C)[C@@H]2[C@]1(C)O gave growth inhibition of 27.1

growth inhibition for Cn1c(=O)c2c(nc3sc4c(n32)C(=O)c2c(O)ccc(O)c2C4=O)n(C)c1=O is 21.6

// recorded growth inhibition for O=C1C=CC(Nc2ccc(Cl)c(Cl)c2)C1Nc1ccc(Cl)c(Cl)c1 (centres undefined) : 39.5

// O=S1(=O)OCCC1C(O)(c1ccccc1)c1ccccc1 (centres undefined) : growth inhibition value = 1.7

Lab note: measured growth inhibition of CC(=O)Nc1ccc(S(=O)(=O)n2c(=O)oc3cc(Cl)ccc32)cc1 was 3.4

growth inhibition measured on CCOC(=O)/C(=C\c1ccc(N(C)C)cc1)S(=O)(=O)C(F)(F)C(F)(F)C(F)(F)C(F)(F)F = 2

// field: growth inhibition; key: CC(=O)Nc1nnc(C)o1 ; value = -0.85

Form field growth inhibition, entry c1ccc2c(c1)ncc1cc3c(cc12)[nH]c1ccccc13 : 40.9

Short answer for CC1OC(OC2CCC3(C)C(CCC4C3CC(O)C3(C)C(C5=CC(=O)OC5)CCC43O)C2)CC(O)C1OC1CC(O)C(OC2CC(O)C(OC3OC(CO)C(O)C(O)C3O)C(C)O2)C(C)O1 (centres undefined) : growth inhibition was 16.4

Entry under test: CCO/C(C)=C(/C(C)=O)C(=O)NC1CCCCC1 . Its growth inhibition was -1.65

Value of growth inhibition reported for the molecule C(=Nc1ccccc1-c1ccccc1N=Cc1ccccc1)c1ccccc1 is 7.6

Entry O=C(Nc1ccc(Cl)cc1)OCCSc1nc2ccccc2s1 — recorded growth inhibition = -6.05

// growth inhibition value for O=C(O)c1ccccc1/C=N/NC1=NCCCCN1 : -46.8

Per the record, COC(=O)c1ccccc1/C=C1\Cc2ccc3c(c2C1=O)CCCC3 has growth inhibition of -30.9

Note to self: growth inhibition recorded for C=C(N1CCCCC1)N1CCCCC1 was -2.75

Short answer for COc1cc(C(=O)N2C[C@H](O)C[C@H]2C(=O)O)cc(OC)c1OC : growth inhibition was -18.4

Given item O=C(CCc1cc(O)ccc1O)OCCc1ccccc1 , the value recorded as its growth inhibition is 30.9

Per the record, FC(F)Cc1ccccc1 has growth inhibition of 3.55

Lookup result for CC1(C)OC[C@@H](O)[C@H](Br)CO1 ; measured growth inhibition: -14.7

// O=C1c2ccccc2CN(C(=Nc2ccccc2)Nc2ccccc2)c2ccccc21 : growth inhibition value = 15.1

Measured growth inhibition of Nc1cnccn1 : 1.55

Documented growth inhibition of O=C(NC(c1ccccc1)C(Cl)(Cl)c1ccccc1)c1ccccc1 (centres undefined) : 21.8
